Below: a set of entries, each annotated with reported pIC50.
target: Neuronal acetylcholine receptor subunit alpha-7 (Homo sapiens, UniProt P36544); assay: Antagonist activity at human alpha7 nAChR expressed in GH3 cells by Ca2+/Fluo-4 assay; format: cell-based; details: read-out: IC50
Sequence (P36544 whole entry): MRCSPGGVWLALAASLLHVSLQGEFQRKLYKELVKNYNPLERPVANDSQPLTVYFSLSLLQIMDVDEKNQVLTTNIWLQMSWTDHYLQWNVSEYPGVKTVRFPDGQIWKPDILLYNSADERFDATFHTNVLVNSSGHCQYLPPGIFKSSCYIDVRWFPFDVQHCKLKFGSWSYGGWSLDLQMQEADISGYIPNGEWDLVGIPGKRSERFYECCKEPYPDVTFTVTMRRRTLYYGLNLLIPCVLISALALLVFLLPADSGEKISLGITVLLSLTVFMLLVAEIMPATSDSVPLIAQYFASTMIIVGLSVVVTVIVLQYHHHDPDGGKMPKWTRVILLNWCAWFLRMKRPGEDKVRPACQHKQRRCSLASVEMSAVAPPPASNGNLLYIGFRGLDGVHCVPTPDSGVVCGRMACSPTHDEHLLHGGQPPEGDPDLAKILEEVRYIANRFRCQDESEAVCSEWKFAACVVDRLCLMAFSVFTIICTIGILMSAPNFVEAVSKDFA
pIC50: −log10 of the molar value.
Reported Endpoint: pIC50

1) CC[C@@H]1CN2CC[C@@]34c5ccccc5N5/C=C6/[C@H]7C[C@@H]8N(CC[C@@]89c8ccccc8N(/C=C(/[C@H]1C[C@H]23)[C@H]54)[C@@H]69)C[C@H]7CC :: 5.48
2) CC[C@@H]1C[N+]2(Cc3ccc([N+](=O)[O-])cc3)CC[C@@]34c5ccccc5N5/C=C6/[C@H]7C[C@H]8[C@@]9(CC[N+]8(Cc8ccc([N+](=O)[O-])cc8)C[C@H]7CC)c7ccccc7N(/C=C(/[C@H]1C[C@@H]32)[C@H]54)[C@@H]69 (some centres undefined) :: 4.68
3) CC[C@@H]1CN2CC[C@@]34c5ccccc5N5/C=C6/[C@H]7C[C@@H]8N(CC[C@@]89c8ccccc8N(/C=C(/[C@H]1C[C@H]23)[C@H]54)[C@@H]69)C[C@H]7CCO :: 5.66
4) C=CC[N+]12CC[C@@]34c5ccccc5N5/C=C6/[C@H]7C[C@H]8[C@@]9(CC[N+]8(CC=C)C[C@H]7CCO)c7ccccc7N(/C=C(/[C@@H](C[C@@H]31)[C@H](CC)C2)[C@H]54)[C@@H]69 (some centres undefined) :: 5.51

The origin of these recorded values is ChEMBL document CHEMBL3352208.
